# MEASUREMENT_DESCRIPTION: basal RPMI8226 viability, no added stimulus, profiling panel, cell-based, calcein-AM fluorescence, 48 h, PK04 Diversity Set (AID 1166);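 also: cells grown under basal conditions without added stimulus; test concentration not given here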
# CONDITION_SUMMARY: RPMI8226 myeloma viability, higher = more signal
z-score overview

A selection of reference data follows.
C[n+]1ccc(-c2ccc(CO)cc2)cc1 : -0.196
C=CC[C@@H]1C=C[C@H](ON=C[C@@H](C)[C@H](OCc2ccccc2)C(C)C)[C@@H](CO)O1 : -0.958

Measured z-score, CC(C)CON=C1C[C@@H](O)[C@@H](O)[C@@H]2[C@@H]3C(=O)N(C4CCCCC4)C(=O)[C@@H]3CC[C@@H]12 : -0.271

Short answer for C#CCCCON=C1C[C@@H](O)[C@@H](O)[C@@H]2[C@@H]3C(=O)N(c4cccc(Oc5ccccc5)c4)C(=O)[C@@H]3CC[C@H]12 : z-score was 0.116

The compound identified as O=C1C[C@@H](O)[C@@H](O)[C@@H]2[C@@H]3C(=O)N(Cc4ccccc4)C(=O)[C@@H]3CC[C@@H]12 registered its z-score at -0.499

Just so you know, measured z-score for COc1ccc(O[C@H]2C=C[C@@H](c3ccccc3)O[C@@H]2CON=C2[C@H]3CCn4c(=O)n(-c5ccccc5)c(=O)n4[C@H]3[C@H](O)[C@@H]3O[C@H]23)cc1 came out at -1.37

Form field z-score, entry O=C1C[C@@H](O)[C@@H](O)[C@@H]2[C@@H]3C(=O)N(Cc4ccc5c(c4)OCO5)C(=O)[C@@H]3CC[C@H]12 : -0.0121

Noted for COC(=O)CC=C[C@@H](C)[C@@H](C=NOC[C@@H](O)[C@H]1O[C@@H]2OC(C)(C)O[C@@H]2[C@H]1O)NS(=O)(=O)c1ccc(C)cc1 : its z-score reads -0.34

The compound CC[C@@H](c1ccccc1)n1c(=O)n2n(c1=O)[C@H]1[C@H](O)[C@@H]3O[C@@H]3C(=O)[C@H]1CC2 showed z-score equal to -2.84

The compound listed as CC(C)=CCCC(C)=CCON=C1C[C@@H](O)[C@@H](O)[C@@H]2[C@@H]3C(=O)N(Cc4ccccc4)C(=O)[C@@H]3CC[C@H]12 shows z-score equal to -1.41

GET /value?item= CCOC(=O)NN=C1C[C@@H](O)[C@@H](O)[C@@H]2[C@@H]3C(=O)N(Cc4ccccc4)C(=O)[C@@H]3CC[C@H]12 &field=z-score returns -2

The recorded z-score for CCCCC#C[C@@H]1C=C[C@H](Oc2ccc(C(=O)OC)cc2)[C@@H](COC(=O)OCC)O1 is -3.46

----------
Below, each entry is listed with its recorded composite z-score.
# TARGET_OF_ASSAY: Calmodulin-1 (Homo sapiens) (UniProt P0DP23)
# MEASUREMENT_DESCRIPTION: calcium-bound CALM1 binders on microarrays, profiling panel, artefact control for SMM control-protein annotation, biochemical, small-molecule microarray, Cy5-labelled CALM1, plus calcium (AID 1112);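 also: score merges spot fluorescence with signal to noise from triplicate slides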
# CONDITION_SUMMARY: Cy5-CALM1 binding fluorescence, higher = more signal
Hey, just send me the number, nothing else.

CC(C)(C)N1C(=O)[C@H]2[C@H]3[C@H](O)[C@H](O)CC(=NO[C@@H]4O[C@H](CO)[C@@H](O)[C@H](O)[C@H]4O)[C@H]3CC[C@H]2C1=O : -1.12
O=C1C[C@@H](O)[C@@H](O)[C@@H]2[C@@H]3C(=O)N(C[C@@H]4CCCO4)C(=O)[C@@H]3CC[C@H]12 : -0.522
CCOC(=O)[C@H](CC(C)C)NC(=O)CCC1CC(OC(=O)NCc2cccc3ccccc23)CC2(CCCC(COC(=O)NCCOC)O2)O1 (stereo not given in full) : -0.418
CON=C(C)CCC(=O)OC[C@H]1O[C@H](c2ccccc2)C=C[C@@H]1Oc1ccc(OC)cc1 : -0.724
C#CCCCON=C1C[C@@H](O)[C@@H](O)[C@@H]2[C@@H]3C(=O)N(c4ccc(F)cc4F)C(=O)[C@@H]3CC[C@@H]12 : -0.813

Query COc1ccc(COC(=O)NN=C2C[C@@H](O)[C@@H](O)[C@@H]3[C@@H]4C(=O)N(c5ccc(F)cc5F)C(=O)[C@@H]4CC[C@H]23)cc1 yields composite z-score of -0.318

Just so you know, measured composite z-score for CC(CCN1CCCc2nc(C)c(C)cc21)=NOC(C)CN1CCCCc2nc(C)c(C)cc21 (stereo not given) came out at -0.568

For this molecule ( C[C@@H]1NC(=O)[C@@H](C)COC(=O)[C@H](C)NC(=O)[C@@H](C)COC1=O ), measured composite z-score is -0.521

Sure, the documented composite z-score for COCCNC(=O)OCC1CCCC2(CC(OC(=O)NCc3ccc4c(c3)OCO4)CC(CCC(=O)N[C@@H](C)C(=O)OC)O2)O1 (stereo not given in full) is -0.431

Lab note: measured composite z-score of CCCCc1nc2c(c3c1C[C@H](C)OC3)CN(CCOc1ccccc1)CC2 was -0.7
